Biological target: human ETB receptor (Homo sapiens)
Construct: expressed in transfected cells; host or cells: COS7 cells
Sequence (P24530 27-442): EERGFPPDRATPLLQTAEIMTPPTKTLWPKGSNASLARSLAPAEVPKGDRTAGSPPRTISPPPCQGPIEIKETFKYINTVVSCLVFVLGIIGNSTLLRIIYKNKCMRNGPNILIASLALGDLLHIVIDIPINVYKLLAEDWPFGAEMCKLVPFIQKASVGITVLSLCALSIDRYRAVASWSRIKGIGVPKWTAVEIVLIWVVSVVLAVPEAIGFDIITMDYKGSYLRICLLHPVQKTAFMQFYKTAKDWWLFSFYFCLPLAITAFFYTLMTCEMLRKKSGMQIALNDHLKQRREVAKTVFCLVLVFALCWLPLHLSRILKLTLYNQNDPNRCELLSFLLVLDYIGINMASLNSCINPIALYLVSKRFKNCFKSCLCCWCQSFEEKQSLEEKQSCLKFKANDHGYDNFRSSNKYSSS
Experiment: Binding Test #2: inhibition of 125I-ET-1 binding to ETB receptors (transfected COS7 cell membranes)
Details: Table 1; incubation at 4° C.; read-out: ETB
Entries and their IC50 values follow.
Express the result in nM but write the number alone.

Recorded results for 8 compounds are shown here.
>>> print(df.to_string())
                                   compound  scale_unit  value_reported
0             Cc1noc(NS(=O)(=O)c2ccsc2)c1Br          nM           23400
1    Cc1noc(NS(=O)(=O)c2cccn2-c2ccccc2)c1Br          nM            8700
2  COc1ccc(NC(=O)c2sccc2S(=O)(=O)Nc2onc(C)c2Br)cc1          nM            2120
3  Cc1noc(NS(=O)(=O)c2ccc(-c3cc(C(F)(F)F)cc(C(F)(F)F)c3)s2)c1Br          nM           12000
4  Cc1noc(NS(=O)(=O)c2ccsc2NC(=O)Nc2sccc2S(=O)(=O)Nc2onc(C)c2Br)c1Br          nM             290
5  COc1cccc(-c2ccc(S(=O)(=O)Nc3onc(C)c3Br)s2)c1          nM             776
6  Cc1noc(NS(=O)(=O)c2cc(-c3ccc(C(C)C)cc3)cs2)c1Br          nM            1300
7  Cc1noc(NS(=O)(=O)c2ccsc2C(=O)Nc2ccc(C(C)(C)C)cc2)c1Br          nM            2820

Returns the measured IC50 for the input compound. Input: `Cc1noc(NS(=O)(=O)c2cc(CCc3ccccc3)cs2)c1Br` 3970

Returns the measured IC50 for the input compound. Input: `COc1ccccc1-c1ccc(S(=O)(=O)Nc2onc(C)c2Br)s1` 1100

Returns the measured IC50 for the input compound. Input: `CCCc1sc2ccccc2c1S(=O)(=O)Nc1onc(C)c1Br` 7950

Returns the measured IC50 for the input compound. Input: `Cc1noc(NS(=O)(=O)c2cc(Br)c(Br)s2)c1Br` 2580
